Target: SMARCA2-HiBiT (Homo sapiens, UniProt P51531)
Construct: SMARCA2-HiBiT knock-in Hela monoclonal cell (CS302366); host or cells: HeLa monoclonal knock-in line (CRISPR HiBiT knock-in at the endogenous locus, heterozygous)
Sequence (P51531 whole entry): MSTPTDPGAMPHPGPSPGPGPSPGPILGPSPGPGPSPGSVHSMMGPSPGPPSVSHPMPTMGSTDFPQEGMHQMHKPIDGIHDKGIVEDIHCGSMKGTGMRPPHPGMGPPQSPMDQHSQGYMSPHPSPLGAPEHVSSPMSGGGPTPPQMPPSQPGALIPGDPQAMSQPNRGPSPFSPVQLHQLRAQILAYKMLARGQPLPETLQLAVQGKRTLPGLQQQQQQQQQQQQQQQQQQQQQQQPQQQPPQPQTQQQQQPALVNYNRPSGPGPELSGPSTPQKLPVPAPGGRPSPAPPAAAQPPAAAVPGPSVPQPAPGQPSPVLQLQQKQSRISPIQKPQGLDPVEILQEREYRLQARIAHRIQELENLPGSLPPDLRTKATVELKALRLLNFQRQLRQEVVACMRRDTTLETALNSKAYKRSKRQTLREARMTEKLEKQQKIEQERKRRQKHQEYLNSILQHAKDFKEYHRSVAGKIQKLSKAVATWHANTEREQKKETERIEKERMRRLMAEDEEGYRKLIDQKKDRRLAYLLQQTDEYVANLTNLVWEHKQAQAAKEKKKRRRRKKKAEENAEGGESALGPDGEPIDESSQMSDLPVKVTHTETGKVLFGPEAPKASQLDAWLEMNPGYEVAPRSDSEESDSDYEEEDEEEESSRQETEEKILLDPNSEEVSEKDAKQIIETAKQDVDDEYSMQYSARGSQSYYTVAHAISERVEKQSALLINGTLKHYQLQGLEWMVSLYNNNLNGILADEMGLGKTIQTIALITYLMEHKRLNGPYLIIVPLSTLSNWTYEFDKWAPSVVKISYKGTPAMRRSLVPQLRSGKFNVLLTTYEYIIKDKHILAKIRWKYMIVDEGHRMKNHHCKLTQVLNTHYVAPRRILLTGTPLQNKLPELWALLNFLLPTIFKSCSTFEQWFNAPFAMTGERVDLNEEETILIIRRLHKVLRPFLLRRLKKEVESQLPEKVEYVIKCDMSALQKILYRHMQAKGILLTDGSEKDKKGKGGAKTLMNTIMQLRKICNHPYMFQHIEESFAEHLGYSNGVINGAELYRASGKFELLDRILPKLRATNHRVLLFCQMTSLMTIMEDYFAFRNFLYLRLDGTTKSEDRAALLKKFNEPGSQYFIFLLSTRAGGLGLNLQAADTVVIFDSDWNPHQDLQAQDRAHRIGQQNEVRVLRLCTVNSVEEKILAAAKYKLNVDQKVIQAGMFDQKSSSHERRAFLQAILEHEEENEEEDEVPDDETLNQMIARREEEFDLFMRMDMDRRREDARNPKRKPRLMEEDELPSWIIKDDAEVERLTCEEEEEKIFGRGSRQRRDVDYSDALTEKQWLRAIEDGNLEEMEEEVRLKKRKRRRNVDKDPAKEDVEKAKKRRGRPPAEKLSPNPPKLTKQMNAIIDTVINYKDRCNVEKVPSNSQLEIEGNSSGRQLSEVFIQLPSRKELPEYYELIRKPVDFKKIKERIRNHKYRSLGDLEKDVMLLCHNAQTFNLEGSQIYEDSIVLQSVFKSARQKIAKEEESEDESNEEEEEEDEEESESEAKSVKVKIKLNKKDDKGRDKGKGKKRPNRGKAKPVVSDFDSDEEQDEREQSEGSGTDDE
Assay: SMARCA2 HiBiT degradation assay in HeLa cells
Type: cell-based
Details: HeLa, 18 hours incubation, read-out: HeLa-HiBit-SM2 Dmax (%)
Entries and their measured Dmax follow.

COMPOUND	Dmax
COC1(CN2C[C@@H]3[C@@H](CN4CCN5c6cc(-c7ccccc7O)nnc6NC[C@H]5C4)[C@@H]3C2)CCN(c2ccc3c(c2)C(=O)N(C2CCC(=O)NC2=O)C3=O)CC1 (stereo partly drawn)	75 to 85%
CN(C(=O)N1CCN2c3cc(-c4ccccc4O)nnc3NC[C@H]2C1)C1CCN(CC2CCN(c3ccc4c(c3)C(=O)N(C3CCC(=O)NC3=O)C4=O)CC2)CC1 (stereo partly drawn)	> 85%

Turning to the following compound.
Dmax measured on O=C1CCC(N2C(=O)c3ccc(N4CC5CCC(C4)C5CN4C[C@@H]5[C@H](C4)[C@H]5CN4CCN5c6cc(-c7ccccc7O)nnc6NC[C@H]5C4)cc3C2=O)C(=O)N1 (stereo partly drawn) = 75 to 85%

Values from patent US12448389B2
